Test system: Aspergillus clavatus
Assay: Antifungal activity against Aspergillus clavatus assessed as growth inhibition at 12.5 to 1000 ug/mL after 48 hrs by broth dilution assay
Type: functional, organism-based
Calls of active or inactive are those of the source. The rule behind the calls is not given here.
assay readout: growth inhibition (GI)

1. Cc1ccc(-c2cc(-c3nc4ccccc4[nH]3)nc(N)c2C#N)cc1 ... inactive
2. COc1ccc(-c2cc(-c3nc4ccccc4[nH]3)nc(N)c2C#N)cc1 ... inactive
3. N#Cc1c(-c2cccc(Cl)c2)cc(-c2nc3ccccc3[nH]2)nc1/N=C/c1ccccc1 ... inactive

---

Test system: Pseudomonas aeruginosa
Test: Antibacterial activity against Pseudomonas aeruginosa MTCC 1688 assessed as growth inhibition after 24 hrs by broth dilution assay
Type: functional
Details: MTCC 1688, 24 h
assay readout: MIC

Previously resolved entries follow.
1) N#Cc1c(-c2ccc([N+](=O)[O-])cc2)cc(-c2nc3ccccc3[nH]2)nc1N1C(=O)C(Cl)C1c1ccccc1 (configuration not stated) ... 12.5 µg/mL
2) Cc1cccc(-c2cc(-c3nc4ccccc4[nH]3)nc(N3C(=O)C(Cl)C3c3ccccc3)c2C#N)c1 (configuration not stated) ... 500 µg/mL
3) N#Cc1c(-c2ccccc2Cl)cc(-c2nc3ccccc3[nH]2)nc1N1C(=O)C(Cl)C1c1ccccc1 (configuration not stated) ... 250 µg/mL

Okay, here is my list. What is MIC for each of these?
1. N#Cc1c(-c2ccc(Cl)cc2)cc(-c2nc3ccccc3[nH]2)nc1N
2. N#Cc1c(-c2ccc(Cl)cc2)cc(-c2nc3ccccc3[nH]2)nc1N1C(=O)C(Cl)C1c1ccccc1 (configuration not stated)

stdout:
1. ≥ 1000 µg/mL
2. 12.5 µg/mL

I would be grateful if you could provide MIC for each of the following entries.
1. N#Cc1c(-c2ccc(O)cc2)cc(-c2nc3ccccc3[nH]2)nc1N1C(=O)C(Cl)C1c1ccccc1 (configuration not stated)
2. N#Cc1c(-c2ccccc2O)cc(-c2nc3ccccc3[nH]2)nc1N1C(=O)C(Cl)C1c1ccccc1 (configuration not stated)

stdout:
1: 250 µg/mL; 2: 500 µg/mL

---

Tested on: Streptococcus pyogenes
Experiment: Antibacterial activity against Streptococcus pyogenes MTCC 442 assessed as growth inhibition after 24 hrs by broth dilution assay
Assay type: functional
Details: MTCC 442, 24 h
For each entry below, report its MIC value.
Numbers only, in µg/mL.

1. N#Cc1c(-c2ccccc2O)cc(-c2nc3ccccc3[nH]2)nc1N1C(=O)C(Cl)C1c1ccccc1 (stereo not given) ... 500
2. N#Cc1c(-c2ccccc2)cc(-c2nc3ccccc3[nH]2)nc1N1C(=O)C(Cl)C1c1ccccc1 (stereo not given) ... 500

Okay, next one:
stdin: Tell me its MIC given N#Cc1c(-c2ccc(Cl)cc2)cc(-c2nc3ccccc3[nH]2)nc1/N=C/c1ccccc1 as the entry.
stdout: 1000

---

Tested on: Candida albicans
Test: Antifungal activity against Candida albicans assessed as growth inhibition at 12.5 to 1000 ug/mL after 48 hrs by broth dilution assay
Assay type: functional, organism-based
Active and inactive are the calls of the source. No cut-off for these calls is given here.
assay readout: growth inhibition (GI)

1. COc1ccc(-c2cc(-c3nc4ccccc4[nH]3)nc(N)c2C#N)cc1 ... inactive
2. N#Cc1c(-c2ccccc2)cc(-c2nc3ccccc3[nH]2)nc1N ... inactive
3. N#Cc1c(-c2ccc(O)cc2)cc(-c2nc3ccccc3[nH]2)nc1N ... inactive

---

System: Pseudomonas aeruginosa
Assay: Antibacterial activity against Pseudomonas aeruginosa MTCC 1688 assessed as growth inhibition after 24 hrs by broth dilution assay
Type: functional
Conditions: MTCC 1688, 24 h
assay readout: MIC (µg/mL)
Give bare numbers, in µg/mL.

# count of solved cases: 5
1) N#Cc1c(-c2cccc([N+](=O)[O-])c2)cc(-c2nc3ccccc3[nH]2)nc1N1C(=O)C(Cl)C1c1ccccc1 (stereo not drawn) ... 50
2) N#Cc1c(-c2ccc([N+](=O)[O-])cc2)cc(-c2nc3ccccc3[nH]2)nc1/N=C/c1ccccc1 ... 1000
3) COc1ccc(-c2cc(-c3nc4ccccc4[nH]3)nc(N3C(=O)C(Cl)C3c3ccccc3)c2C#N)cc1 (stereo not drawn) ... 250
4) N#Cc1c(-c2cccc([N+](=O)[O-])c2)cc(-c2nc3ccccc3[nH]2)nc1/N=C/c1ccccc1 ... 1000
5) N#Cc1c(-c2cccc(Cl)c2)cc(-c2nc3ccccc3[nH]2)nc1/N=C/c1ccccc1 ... 1000

Can you give me MIC for all of these, one by one?
1. N#Cc1c(-c2cccc(O)c2)cc(-c2nc3ccccc3[nH]2)nc1N1C(=O)C(Cl)C1c1ccccc1 (stereo not drawn)
2. N#Cc1c(-c2ccccc2)cc(-c2nc3ccccc3[nH]2)nc1N1C(=O)C(Cl)C1c1ccccc1 (stereo not drawn)
3. COc1cccc(-c2cc(-c3nc4ccccc4[nH]3)nc(N3C(=O)C(Cl)C3c3ccccc3)c2C#N)c1 (stereo not drawn)
4. Cc1ccccc1-c1cc(-c2nc3ccccc3[nH]2)nc(N2C(=O)C(Cl)C2c2ccccc2)c1C#N (stereo not drawn)
5. N#Cc1c(-c2ccc(Cl)cc2O)cc(-c2nc3ccccc3[nH]2)nc1N1C(=O)C(Cl)C1c1ccccc1 (stereo not drawn)
6. N#Cc1c(-c2ccc(Cl)cc2)cc(-c2nc3ccccc3[nH]2)nc1/N=C/c1ccccc1
7. N#Cc1c(-c2cccc(Cl)c2)cc(-c2nc3ccccc3[nH]2)nc1N1C(=O)C(Cl)C1c1ccccc1 (stereo not drawn)

stdout:
500
500
500
1000
200
1000
25

# return MIC for each item in the list
1. O=C(N[C@H](CO)[C@H](O)c1ccc([N+](=O)[O-])cc1)C(Cl)Cl
2. Cc1ccc(-c2cc(-c3nc4ccccc4[nH]3)nc(N3C(=O)C(Cl)C3c3ccccc3)c2C#N)cc1 (stereo not drawn)
3. N#Cc1c(-c2ccccc2Cl)cc(-c2nc3ccccc3[nH]2)nc1/N=C/c1ccccc1

stdout:
1. 50
2. 500
3. 1000

---

Can you tell me log10(MIC) for the items I'm about to list?
System: Streptococcus pyogenes
Test: Antibacterial activity against Streptococcus pyogenes MTCC 442 assessed as growth inhibition after 24 hrs by broth dilution assay
Type: functional
Conditions: MTCC 442, 24 h
Could you please treat all values as log10 of MIC in µg/mL?

1. O=C(N[C@H](CO)[C@H](O)c1ccc([N+](=O)[O-])cc1)C(Cl)Cl [CHLORAMPHENICOL] ... 1.70
2. N#Cc1c(-c2ccccc2Cl)cc(-c2nc3ccccc3[nH]2)nc1N1C(=O)C(Cl)C1c1ccccc1 (stereo not drawn) ... 2.00
3. N#Cc1c(-c2cccc(Cl)c2)cc(-c2nc3ccccc3[nH]2)nc1/N=C/c1ccccc1 ... 3.00

Give one value of log10(MIC) per listed molecule.
1. N#Cc1c(-c2ccccc2Cl)cc(-c2nc3ccccc3[nH]2)nc1/N=C/c1ccccc1
2. COc1ccc(-c2cc(-c3nc4ccccc4[nH]3)nc(N3C(=O)C(Cl)C3c3ccccc3)c2C#N)cc1 (stereo not drawn)
3. Cc1ccc(-c2cc(-c3nc4ccccc4[nH]3)nc(N3C(=O)C(Cl)C3c3ccccc3)c2C#N)cc1 (stereo not drawn)
4. N#Cc1c(-c2ccc([N+](=O)[O-])cc2)cc(-c2nc3ccccc3[nH]2)nc1/N=C/c1ccccc1

stdout:
3.00
2.40
2.70
3.00

stdin: Retrieve log10(MIC) measured for COc1cccc(-c2cc(-c3nc4ccccc4[nH]3)nc(N3C(=O)C(Cl)C3c3ccccc3)c2C#N)c1 (stereo not drawn) and print it.
stdout: 2.70

---

Tested on: Staphylococcus aureus
Experiment: Antibacterial activity against Staphylococcus aureus MTCC 96 assessed as growth inhibition after 24 hrs by broth dilution assay
Format: functional
Settings: MTCC 96, 24 h
Criterion: MIC strictly under 100 µg/mL. Met: Criterion met. Not met: Criterion not met.

1. N#Cc1c(-c2cccc(Cl)c2)cc(-c2nc3ccccc3[nH]2)nc1N1C(=O)C(Cl)C1c1ccccc1 (stereo not given) ... Criterion met
2. N#Cc1c(-c2cccc([N+](=O)[O-])c2)cc(-c2nc3ccccc3[nH]2)nc1N ... Criterion not met
3. N#Cc1c(-c2ccc(O)cc2)cc(-c2nc3ccccc3[nH]2)nc1N1C(=O)C(Cl)C1c1ccccc1 (stereo not given) ... Criterion not met
4. N#Cc1c(-c2ccc([N+](=O)[O-])cc2)cc(-c2nc3ccccc3[nH]2)nc1N1C(=O)C(Cl)C1c1ccccc1 (stereo not given) ... Criterion met
5. N#Cc1c(-c2ccccc2)cc(-c2nc3ccccc3[nH]2)nc1N1C(=O)C(Cl)C1c1ccccc1 (stereo not given) ... Criterion not met

Let's switch to this molecule now.
stdin: Lab log: compare recorded MIC with 100 µg/mL; is it strictly lower for Cc1ccccc1-c1cc(-c2nc3ccccc3[nH]2)nc(N2C(=O)C(Cl)C2c2ccccc2)c1C#N (stereo not given) ?
stdout: Criterion not met

---

Please respond with reported MIC for every item in the list.
Test system: Streptococcus pyogenes
Assay: Antibacterial activity against Streptococcus pyogenes MTCC 442 assessed as growth inhibition after 24 hrs by broth dilution assay
Format: functional
Settings: MTCC 442, 24 h
Write the numeric value and follow it with the unit.

Example entries and their recorded answers appear below.
1. N#Cc1c(-c2cccc([N+](=O)[O-])c2)cc(-c2nc3ccccc3[nH]2)nc1/N=C/c1ccccc1 ... 1000 µg/mL
2. N#Cc1c(-c2cccc(O)c2)cc(-c2nc3ccccc3[nH]2)nc1N1C(=O)C(Cl)C1c1ccccc1 (centres undefined) ... 500 µg/mL
3. N#Cc1c(-c2ccc([N+](=O)[O-])cc2)cc(-c2nc3ccccc3[nH]2)nc1N1C(=O)C(Cl)C1c1ccccc1 (centres undefined) ... 25 µg/mL

We next turn to a different molecule, shown below.
stdin: // fetch MIC; item: N#Cc1c(-c2cccc(Cl)c2)cc(-c2nc3ccccc3[nH]2)nc1N1C(=O)C(Cl)C1c1ccccc1 (centres undefined) ; system: Streptococcus pyogenes
stdout: 50 µg/mL
